Experiment notes: Blood concentrations and pharmacokinetics after 1 mg/kg i.v. in mice
Format: in vivo, mouse
Condition: mouse, in vivo, iv, 1 mg/kg, mouse blood, mean, read-out: AUC0-inf, Mean S.D.
Recorded metric: AUC0-inf

Input line: Value lookup for AUC0-inf; key = Cc1nn(C)c2nc(NNC(=O)Nc3cc(Cl)nc(Cl)c3)cc(C(C)C)c12 [JTE013]
Output line: 107 ng·h/mL

* * *

Target entity: S1P2 receptor (Homo sapiens (Human))
Sequence (O95136 whole entry): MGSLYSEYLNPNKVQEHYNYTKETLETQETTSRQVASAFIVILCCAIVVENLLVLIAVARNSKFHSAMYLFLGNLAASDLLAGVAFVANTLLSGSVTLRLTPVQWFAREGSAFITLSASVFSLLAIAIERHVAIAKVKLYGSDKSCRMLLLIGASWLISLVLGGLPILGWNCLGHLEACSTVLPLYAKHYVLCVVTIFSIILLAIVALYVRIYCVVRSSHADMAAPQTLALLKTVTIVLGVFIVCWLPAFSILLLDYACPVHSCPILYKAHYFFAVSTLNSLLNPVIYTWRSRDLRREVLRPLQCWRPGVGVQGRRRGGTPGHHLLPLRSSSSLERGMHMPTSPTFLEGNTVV
Experiment notes: Antagonist assay (FLIPR TETRA, inhibition of reference agonist EC80) on S1P2
Condition: tested as the citrate salt
Recorded metric: IC50 (nM)
Write the number in nM without appending the unit.

Known results for compounds:
Compound	IC50, nM
COCCOc1cc(NC(=O)NN(CCO)c2cc(C(C)C)c3c(C)nn(C)c3n2)cc(Cl)n1	160
Cc1nn(C)c2nc(NNC(=O)Nc3cc(Cl)nc(Cl)c3)cc(C(C)C)c12	11
C=CCn1nc(C)c2c(C(C)C)cc(NNC(=O)Nc3cc(Cl)nc(Cl)c3)nc21 [Compound 27]	75

Input line: Please give the measured IC50 for this compound: Cc1nn(C)c2nc(N(CC(=O)O)NC(=O)Nc3cc(Cl)nc(Cl)c3)cc(C(C)C)c12
Output line: 11

Input line: // IC50 lookup, key: Cc1nn(C)c2nc(N(CCO)NC(=O)Nc3cc(Cl)c(Cl)s3)cc(C(C)C)c12
Output line: 64

* * *

Experiment notes: In vitro plasma protein binding
Assay type: in vitro ADME, mouse
Condition: mouse plasma, test concentration 5 nM
# key: entry, value: mean fraction bound (%)
Record the value in %, omitting the unit from your answer.

Consider the reported mean fraction bound (%) for these compounds:
Compound	mean fraction bound (%)
Cc1nn(C)c2nc(N(CC(=O)O)NC(=O)Nc3cc(Cl)nc(Cl)c3)cc(C(C)C)c12 [Compound 2]	77.0
CC(C)NCC(O)COc1cccc2ccccc12 (stereo not drawn) [Propanolol, reference compound]	87.4

Let us examine a further case.
Input line: Fill in the blank: the reported mean fraction bound (%) of Cc1nn(C)c2nc(NNC(=O)Nc3cc(Cl)nc(Cl)c3)cc(C(C)C)c12 [JTE013] is ____.
Output line: 99.7

Numbers sourced from patent US9663511B2.
